Listing of recorded EC50 by entry.
- target-or-test-system: T1, cyno EpCAM (recombinant, ELISA antigen) (cynomolgus monkey)
- T1 construct: extracellular domain; also called cynomolgus EpCAM extracellular domain
- T1 sequence (Q1WER1 24-265): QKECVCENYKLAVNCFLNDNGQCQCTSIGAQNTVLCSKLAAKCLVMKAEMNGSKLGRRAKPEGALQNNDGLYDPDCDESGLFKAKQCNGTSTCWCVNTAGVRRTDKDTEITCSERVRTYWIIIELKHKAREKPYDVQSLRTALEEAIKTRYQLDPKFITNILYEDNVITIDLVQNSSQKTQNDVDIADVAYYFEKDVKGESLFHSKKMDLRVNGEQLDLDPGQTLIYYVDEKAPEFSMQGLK
- assay-explanation: ELISA, cyno EpCAM, pH 7.4
Entry rule: numbers only, all in µg/mL.

Worked set:
binder="BAP-105.4-02-01 (antibody, V domains shown, Humanized) VH: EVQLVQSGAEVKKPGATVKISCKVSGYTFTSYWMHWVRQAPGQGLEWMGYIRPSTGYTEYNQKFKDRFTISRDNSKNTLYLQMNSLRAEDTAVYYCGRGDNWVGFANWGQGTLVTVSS VL: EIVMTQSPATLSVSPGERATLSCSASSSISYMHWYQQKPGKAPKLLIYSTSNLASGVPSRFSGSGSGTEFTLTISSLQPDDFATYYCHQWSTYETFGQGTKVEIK" recorded_value=0.0359
binder="BAP-105-01-01 (antibody, V domains shown, Non-conditionally active control; also called template antibody (WT)) VH: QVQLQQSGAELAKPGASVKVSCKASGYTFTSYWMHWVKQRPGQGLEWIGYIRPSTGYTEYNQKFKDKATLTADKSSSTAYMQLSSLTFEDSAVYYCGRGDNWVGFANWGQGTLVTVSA VL: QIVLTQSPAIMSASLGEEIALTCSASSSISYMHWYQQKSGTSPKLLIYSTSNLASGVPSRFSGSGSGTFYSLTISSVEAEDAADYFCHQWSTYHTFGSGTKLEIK" recorded_value=0.3

Memo: BAP-105.4-03-02 (antibody, V domains shown, Humanized) VH: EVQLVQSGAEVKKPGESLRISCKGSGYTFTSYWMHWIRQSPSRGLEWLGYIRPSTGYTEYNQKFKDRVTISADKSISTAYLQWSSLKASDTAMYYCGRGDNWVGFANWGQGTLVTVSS VL: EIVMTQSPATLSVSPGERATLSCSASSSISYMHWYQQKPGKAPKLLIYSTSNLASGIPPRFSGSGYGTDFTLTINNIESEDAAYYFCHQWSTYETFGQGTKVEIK , reported EC50: 0.105
